# assay target: human GPCR sphingosine 1-phosphate receptor 2 (Homo sapiens)
# Construct: host or cells: CHO
# Sequence (O95136 whole entry): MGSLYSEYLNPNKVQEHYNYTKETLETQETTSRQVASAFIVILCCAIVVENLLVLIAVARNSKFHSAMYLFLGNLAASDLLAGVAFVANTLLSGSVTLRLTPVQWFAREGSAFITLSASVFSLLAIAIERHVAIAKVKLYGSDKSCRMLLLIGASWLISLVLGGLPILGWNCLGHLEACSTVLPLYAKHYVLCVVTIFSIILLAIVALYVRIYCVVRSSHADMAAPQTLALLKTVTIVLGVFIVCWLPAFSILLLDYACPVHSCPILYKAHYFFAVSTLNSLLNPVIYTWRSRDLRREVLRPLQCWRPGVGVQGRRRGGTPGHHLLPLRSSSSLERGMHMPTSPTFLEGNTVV
# experiment notes: S1PR2 antagonist Ca2+ flux assay
# Format: cell-based
# experimental conditions: antagonist mode, CHO-S1PR2 cells, S1P at EC80, Ca2+ fluorescence; read-out: S1P2 EC50 (nM), S1P2 antagonist EC50
# Procedure: Triggering of S1PR2 by administration of Sphingosine-1-phosphate leads to a transient increase in intracellular Ca^2+. The Ca^2+ flux assays are measuring the release of Ca^2+ intracellularly by use of a Ca^2+ sensitive fluorescent dye. The assay is firstly run in agonist mode (incubation of compounds alone) to ensure that the Ca^2+ released measured is not caused by the test compound having an agonistic effect. […]
For each record, write down the corresponding EC50.
Note: unit nM is implicit; provide only the numeric part.

Can you share its EC50? I mean this compound: O=c1c2ccccc2c(Cc2nc3cc(Cl)c(OC(F)(F)F)cc3[nH]2)nn1CC1CCCO1 (stereo not drawn) 4340

And then CN(C)C1CCN(C(=O)Cn2nc(Cc3nc4cc(C#N)c(OCC(F)F)cc4[nH]3)c3c(c2=O)CCCC3)C1 (stereo not drawn) , what is it? 117

And then CCOc1cc2[nH]c(Cc3nn(CC(=O)O)c(=O)c4ccccc34)nc2cc1C#N , what is it? 45

And then COc1cc2[nH]c(Cc3nn(CC(=O)O)c(=O)c4c3CCCC4)nc2cc1Cl , what is it? 57

And then CC(C(=O)NS(C)(=O)=O)n1nc(Cc2nc3cc(OCC4CC4)c(Cl)cc3[nH]2)c2ccccc2c1=O (stereo not drawn) , what is it? 13.6

And then N#Cc1cc2[nH]c(Cc3nn(CC(=O)N4C[C@H](O)[C@@H](O)C4)c(=O)c4ccccc34)nc2cc1OCC(F)F , what is it? 39.7

And then O=C(Cn1nc(Cc2nc3cc(OC(F)(F)F)c(Cl)cc3[nH]2)c2ccccc2c1=O)N1CCOCC1 , what is it? 30.1

And then CN(CC1CCCO1)C(=O)Cn1nc(Cc2nc3cc(OCC(F)F)c(C#N)cc3[nH]2)c2ccccc2c1=O (stereo not drawn) , what is it? 21.1

And then N#Cc1cc2[nH]c(Cc3nn(CC(=O)N4CCC(O)(C5CC5)CC4)c(=O)c4ccccc34)nc2cc1OCC(F)F , what is it? 41.4

And then N#Cc1cc2nc(Cc3nn(CC(=O)N4CCOCC45CCC5)c(=O)c4ccccc34)[nH]c2cc1OCC(F)F , what is it? 143

And then N#Cc1cc2[nH]c(Cc3nn(CC(=O)N4CCOCC4)c(=O)c4ccccc34)nc2cc1OCC(F)(F)F , what is it? 11.4

And then CC(C(=O)O)n1nc(Cn2cc3cc(OCC(F)F)c(Cl)cc3n2)c2ccccc2c1=O (stereo not drawn) , what is it? 161

====

For each record, write down the corresponding EC50.
# assay target: human GPCR sphingosine 1-phosphate receptor 2 (Homo sapiens)
# Construct: host or cells: CHO
# experiment notes: S1PR2 antagonist Ca2+ flux assay
# Type: cell-based
# experimental conditions: antagonist mode, CHO-S1PR2 cells, S1P at EC80, Ca2+ fluorescence; read-out: S1P2 EC50 (nM), S1P2 antagonist EC50
Note: unit nM is implicit; provide only the numeric part.

Can you share its EC50? I mean this molecule: O=C(O)Cc1nn(Cc2cn3cc(OCC4CC4)c(C(F)(F)F)cc3n2)c2ccccc2c1=O [Compound 99] 3.56

And then O=C(Cn1nc(Cc2nc3cc(Cl)c(OCC4CC4)cc3[nH]2)c2ccccc2c1=O)NC1CCCC1 [Compound 150] , what is it? 13.7

And then N#Cc1cc2nc(Cc3nn(CC(=O)O)c(=O)c4ccccc34)cn2cc1OCC1CC1 [Compound 79] , what is it? 82.7

And then O=C(O)Cn1nc(Cc2nc3cc(OCC(F)F)c(Cl)cc3[nH]2)c2c(F)ccc(F)c2c1=O [Compound 126] , what is it? 19.1
